system: Fibroblast; test: Multiplex assay against human fibroblast; format: toxicity, cell-based; details: 12 h, 1 µM, compound concentration 1 uM, replicate 2
Outcome: YES for Population Normal (%) of at least 60%; NO for anything lower.

Reference set, count: 3
TEST SMILES: CCn1c(=O)c(-c2ccc(-c3cncs3)cc2Cl)cc2cnc(Nc3ccc(N4CCN(C)CC4)cc3)nc21
MEASURED ON: Fibroblast
CAT: YES

TEST SMILES: CN1CCN(C(=O)C(C)(C)c2ccc(C(=O)Nc3cn4cc(-c5cc(C(C)(C)C)cc(C(C)(C)C)c5)ccc4n3)cc2)CC1
MEASURED ON: Fibroblast
CAT: YES

TEST SMILES: Cc1ccc2nc(NCCN)c3ncc(C)n3c2c1.O=C(O)C(F)(F)F.O=C(O)C(F)(F)F
MEASURED ON: Fibroblast
CAT: NO

[ask] Please indicate if the recorded Population Normal (%) for "Cl.O=c1c2cccn2c2ccccc2n1CCCN1CCC(c2ccc(Cl)cc2)CC1" meets or exceeds 60%.
[reply] YES

[ask] And for "C=CCn1c(=O)c2cnc(Nc3ccc(N4CCN(C)CC4)cc3)nc2n1-c1cccc(C(C)(C)O)n1" ?
[reply] YES

[ask] And for "CCn1cc(-c2ccnc3[nH]c(-c4cccc(CN(C)C)c4)cc23)c(-c2ccc(NC(=O)N(C)C)cc2)n1" ?
[reply] NO

[ask] And for "O=C1N/C(=N/c2ccccc2F)S/C1=C\c1ccc(C(=O)O)cc1" ?
[reply] YES

---

system: HEK-293T; experiment: Multiplex assay against HEK293T; assay type: toxicity, cell-based; conditions: human, 24 h, 1 µM, compound concentration 1 uM, replicate 2
Outcome: true for Population Fragmented Nuclei (%) of at least 6%; false for anything lower.

COMPOUND: O=C(Nc1ccc(-n2nc(-c3cccnc3)cc2C(F)(F)F)cn1)c1ccc(-c2ccccc2)c(F)c1
CAT: true
--
COMPOUND: O=C(Nc1ccc(Cl)cc1)Nc1cccc(-c2cccc(N3CCCC3)n2)c1
CAT: true
--
COMPOUND: CCNc1cc(N[C@H]2CC[C@H](O)CC2)nc(Nc2ccc3c(ccn3Cc3ccccc3)c2)n1
CAT: true
--
COMPOUND: CCCS(=O)(=O)c1nc(NC2CC2)cc(-c2ccc3c(ccn3C3CC(C)(C)NC(C)(C)C3)c2)n1
CAT: true

[ask] Please indicate if the recorded Population Fragmented Nuclei (%) for "CCn1c(=O)c(-c2ccc(-c3cncs3)cc2Cl)cc2cnc(Nc3ccc(N4CCN(C)CC4)cc3)nc21" meets or exceeds 6%.
[reply] false

[ask] And for "CCN1CCN(c2ccc(Nc3cc(N(C)C(=O)Nc4c(Cl)c(OC)cc(OC)c4Cl)ncn3)cc2)CC1" ?
[reply] true

[ask] And for "O=C(Nc1ccc(-c2ccnc(Nc3ccc(N4CCOCC4)cc3)n2)cc1)[C@@H]1CCCN1" ?
[reply] false

---

Let's look at some molecules and their measured Population Pyknosed Nuclei (%).
system: Fibroblast; assay: Multiplex assay against human fibroblast; assay type: toxicity, cell-based; conditions: 12 h, 1 µM, compound concentration 1 uM, replicate 1
Report the value in % with no unit label.

Worked examples follow.
MOLECULE: CN1CCN(C(=O)C(C)(C)c2ccc(C(=O)Nc3cn4cc(-c5cc(C(C)(C)C)cc(C(C)(C)C)c5)ccc4n3)cc2)CC1
QUANTITY MEASURED: Population Pyknosed Nuclei (%)
QUANTITY UNIT: %
READOUT NUMBER: 13
--
MOLECULE: COc1ccc(-c2ccc3c(N4CCOCC4)nc(N4C[C@@H](C)O[C@@H](C)C4)nc3n2)cc1CO
QUANTITY MEASURED: Population Pyknosed Nuclei (%)
QUANTITY UNIT: %
READOUT NUMBER: 16
--
MOLECULE: CN(C)C(=O)C(CCN1CCC(O)(c2ccc(Cl)cc2)CC1)(c1ccccc1)c1ccccc1.Cl [LOPERAMIDE HYDROCHLORIDE]
QUANTITY MEASURED: Population Pyknosed Nuclei (%)
QUANTITY UNIT: %
READOUT NUMBER: 31
--
MOLECULE: O=C(Cc1ccc(-c2ccc(OCCN3CCOCC3)cc2)cn1)NCc1ccccc1
QUANTITY MEASURED: Population Pyknosed Nuclei (%)
QUANTITY UNIT: %
READOUT NUMBER: 31
--
MOLECULE: CN[C@@H]1C[C@H]2O[C@@](C)([C@@H]1OC)n1c3ccccc3c3c4c(c5c6ccccc6n2c5c31)C(=O)NC4
QUANTITY MEASURED: Population Pyknosed Nuclei (%)
QUANTITY UNIT: %
READOUT NUMBER: 43

[ask] # query: Population Pyknosed Nuclei (%) of entry "CCCS(=O)(=O)Nc1ccc(F)c(C(=O)c2c[nH]c3ncc(Cl)cc23)c1F"
[reply] 17

[ask] And for "CCn1cc(-c2ccnc3[nH]c(-c4cccc(CN(C)C)c4)cc23)c(-c2ccc(NC(=O)N(C)C)cc2)n1" ?
[reply] 14

[ask] And for CN1CCC(=C2c3ccccc3CC(=O)c3sccc32)CC1.O=C(O)/C=C/C(=O)O [KETOTIFEN FUMARATE] ?
[reply] 32

[ask] And for "CCN1CCN(c2ccc(Nc3cc(N(C)C(=O)Nc4c(Cl)c(OC)cc(OC)c4Cl)ncn3)cc2)CC1" ?
[reply] 27

---

test system: Fibroblast; assay: Multiplex assay against human fibroblast; assay type: toxicity, cell-based; conditions: 48 h, 10 µM, compound concentration 10 uM, replicate 2
Friendly reminder: Population Normal (%) below 70% is Y, at or above is N.

Reference set, count: 7
COMPOUND: COCC(=O)NC/C=C/c1ccc2ncnc(Nc3ccc(Oc4ccc(C)nc4)c(C)c3)c2c1 [CP-724714]
CAT: N
//
COMPOUND: O=C1N/C(=N/c2ccccc2F)S/C1=C\c1ccc(C(=O)O)cc1
CAT: N
//
COMPOUND: S=C(NCCCc1c[nH]cn1)NCCCN(Cc1ccc(Cl)c(Cl)c1)c1ccc(Br)cn1
CAT: Y
//
COMPOUND: CN(C)C(=O)C(CCN1CCC(O)(c2ccc(Cl)cc2)CC1)(c1ccccc1)c1ccccc1.Cl [LOPERAMIDE HYDROCHLORIDE]
CAT: Y
//
COMPOUND: COc1cc(N2CCN(C)CC2)ccc1Nc1ncc2c(n1)N(C)c1ccccc1C(=O)N2C
CAT: N
//
COMPOUND: Cc1ccc(C(=O)Nc2cccc(C(F)(F)F)c2)cc1Nc1nc(-c2cccnc2)nc2c1cnn2C
CAT: N
//
COMPOUND: CCCS(=O)(=O)c1nc(NC2CC2)cc(-c2ccc3c(ccn3C3CC(C)(C)NC(C)(C)C3)c2)n1
CAT: Y

Now, please, on to the next compound.
[ask] For this compound, is Population Normal (%) lower than 70%? CN1CCN(C(=O)C(C)(C)c2ccc(C(=O)Nc3cn4cc(-c5ccncc5)ccc4n3)cc2)CC1 [T3-CLK]
[reply] N

---

system: Fibroblast; assay: Multiplex assay against human fibroblast; assay type: toxicity, cell-based; details: 24 h, 1 µM, compound concentration 1 uM, replicate 1
Outcome: true (1) for Population Pyknosed Nuclei (%) of at least 20%; false (0) for anything lower.

Reference set, count: 5
MOLECULE: Cc1cc(C)c(S(=O)(=O)N(Cc2ccc(-c3cccc(S(C)(=O)=O)c3)cc2)Cc2ccc(C(F)(F)F)o2)c(C)c1
CAT: false (0)
//
MOLECULE: C=CCn1c(=O)c2cnc(Nc3ccc(N4CCN(C)CC4)cc3)nc2n1-c1cccc(C(C)(C)O)n1
CAT: false (0)
//
MOLECULE: CN1CCC(=C2c3ccccc3CC(=O)c3sccc32)CC1.O=C(O)/C=C/C(=O)O [KETOTIFEN FUMARATE]
CAT: true (1)
//
MOLECULE: CCn1c(=O)c(-c2ccc(-c3cncs3)cc2Cl)cc2cnc(Nc3ccc(N4CCN(C)CC4)cc3)nc21
CAT: true (1)
//
MOLECULE: Cc1cn(-c2cc(NC(=O)c3ccc(C)c(Nc4nccc(-c5cccnc5)n4)c3)cc(C(F)(F)F)c2)cn1
CAT: true (1)

[ask] Please indicate if the recorded Population Pyknosed Nuclei (%) for "COc1ccc(S(=O)(=O)N(CCO)c2ccccc2CN(C)C/C=C/c2ccc(Cl)cc2)cc1.O=P(O)(O)O" meets or exceeds 20%.
[reply] false (0)

[ask] And for "C[C@H]1Oc2cc(cnc2N)-c2c(nn(C)c2C#N)CN(C)C(=O)c2ccc(F)cc21" ?
[reply] true (1)

[ask] And for "CCCS(=O)(=O)c1nc(NC2CC2)cc(-c2ccc3c(ccn3C3CC(C)(C)NC(C)(C)C3)c2)n1" ?
[reply] true (1)

---

test system: HEK-293T; assay: Multiplex assay against HEK293T; assay type: toxicity, cell-based; conditions: human, 24 h, 1 µM, compound concentration 1 uM, replicate 1
QUANTITY MEASURED: Population Healthy Nuclei (%)
Report the value in % with no unit label.

Worked examples follow.
COMPOUND: COc1cc2ncnc(Nc3ccc(F)c(Cl)c3)c2cc1NC(=O)/C=C/CN1CCCCC1 [DACOMITINIB ANHYDROUS]
QUANTITY UNIT: %
Population Healthy Nuclei (%): 34
--
COMPOUND: O=C(Nc1ccc(Cl)cc1)Nc1cccc(-c2cccc(N3CCCC3)n2)c1
QUANTITY UNIT: %
Population Healthy Nuclei (%): 47
--
COMPOUND: COc1cc(N2CCN(C)CC2)ccc1Nc1ncc2c(n1)N(C)c1ccccc1C(=O)N2C
QUANTITY UNIT: %
Population Healthy Nuclei (%): 58
--
COMPOUND: CCCS(=O)(=O)Nc1ccc(F)c(C(=O)c2c[nH]c3ncc(Cl)cc23)c1F
QUANTITY UNIT: %
Population Healthy Nuclei (%): 78
--
COMPOUND: COc1cccc2cc(-c3nc([C@H]4CC[C@H](C(=O)O)CC4)n4ncnc(N)c34)[nH]c12
QUANTITY UNIT: %
Population Healthy Nuclei (%): 60
--
COMPOUND: CN1CCC(=C2c3ccccc3CC(=O)c3sccc32)CC1.O=C(O)/C=C/C(=O)O [KETOTIFEN FUMARATE]
QUANTITY UNIT: %
Population Healthy Nuclei (%): 42
--
COMPOUND: Cl.O=c1c2cccn2c2ccccc2n1CCCN1CCC(c2ccc(Cl)cc2)CC1
QUANTITY UNIT: %
Population Healthy Nuclei (%): 55
--
COMPOUND: Cc1cn(-c2cc(NC(=O)c3ccc(C)c(Nc4nccc(-c5cccnc5)n4)c3)cc(C(F)(F)F)c2)cn1
QUANTITY UNIT: %
Population Healthy Nuclei (%): 39

[ask] # query: Population Healthy Nuclei (%) of entry "O=C(Cc1ccc(-c2ccc(OCCN3CCOCC3)cc2)cn1)NCc1ccccc1"
[reply] 21

[ask] And for "O=C1N/C(=N/c2ccccc2F)S/C1=C\c1ccc(C(=O)O)cc1" ?
[reply] 38

[ask] And for CN1C2CCC1CC(OC(c1ccc(F)cc1)c1ccc(F)cc1)C2.Cl (stereo unspecified) ?
[reply] 19

[ask] And for "CCOc1cc2ncc(C#N)c(Nc3ccc(OCc4ccccn4)c(Cl)c3)c2cc1NC(=O)/C=C/CN(C)C" ?
[reply] 20

[ask] And for "Cl.Oc1ccc2c3c1O[C@H]1c4[nH]c5c(c4C[C@@]4(O)[C@@H](C2)N(CC2CC2)CC[C@]314)C[C@@]1(O)[C@H]2Cc3ccc(O)c4c3[C@@]1(CCN2CC1CC1)[C@H]5O4" ?
[reply] 38

[ask] And for "O=C(Nc1ccc(-c2ccnc(Nc3ccc(N4CCOCC4)cc3)n2)cc1)[C@@H]1CCCN1" ?
[reply] 52

[ask] And for "CN1CCN(C(=O)C(C)(C)c2ccc(C(=O)Nc3cn4cc(-c5cc(C(C)(C)C)cc(C(C)(C)C)c5)ccc4n3)cc2)CC1" ?
[reply] 76

[ask] And for "CCNc1cc(N[C@H]2CC[C@H](O)CC2)nc(Nc2ccc3c(ccn3Cc3ccccc3)c2)n1" ?
[reply] 76
